Test system: SF-539 CNS
Protocol Details: NCI tumour cell line growth inhibition, 48 h; in the data active means GI50 below about 0.43 µM; inactive means the rest
Hi there, use one of these labels in your reply, thanks! active, inactive

Use these answered entries as a reference point.
Req: Any idea what this test logged for "CCc1ccc2c(c1)C(=O)c1c-2n(CCCN)c(=O)c2cc([N+](=O)[O-])ccc12" ?
Resp: inactive

Req: Assay result, entry CC1COCCN1CC#CCOC(=O)c1cc2ccccc2oc1=O (configuration not stated) — outcome?
Resp: inactive

Req: Could you kindly confirm the outcome this assay logged for COC1=CC2CCN3Cc4cc5c(cc4C(C1O)C23)OCC5 (configuration not stated) ?
Resp: inactive

Req: Check the results log: what was the call for "N=C1C(c2nc3ccccc3s2)=C(O)CN1c1cc(Cl)cc(Cl)c1" ?
Resp: inactive

Req: Test call for this molecule, please: "O=C1NC(=N[C@H](CO)c2ccccc2)S/C1=C\c1ccc2ncccc2c1"
Resp: inactive

Next:
Req: Recorded test call requested for "COc1cc(/C=C/c2cc(O)c(C/C=C(\C)CC/C=C(\C)CO)c(O)c2)cc2c1O[C@]1(C)CC[C@@H](O)C(C)(C)[C@H]1C2"
Resp: inactive

Req: Please state the recorded outcome for this molecule: "O=C1NC(=O)C(c2c[nH]c3ccccc23)=C1c1ccccc1"
Resp: inactive

Req: Record lookup: outcome of this test for "CC(C)[C@H](C(=O)O[C@@H]1/C=C/C(=O)O[C@@H](C)CCC/C=C/[C@@H]2C[C@H](O)C[C@H]21)N(C)C" ?
Resp: inactive
